Assay: NCI Yeast Anticancer Drug Screen. Data for the bub3 strain (AID 167)
Conditions: S. cerevisiae bub3 mutant strain, at 50.0 µM, hits give high values
The panel holds about 79,000 compounds, 15% with a hit somewhere; the sample as a whole holds those more often.
Decision: growth inhibition compared against -10%; not below it gives criterion met, below it gives criterion not met.

Task: Dear colleague, could you confirm whether `CN(C)Cc1[nH]c2ccccc2c1Sc1ccccc1` has growth inhibition at or above -10%?
Output: criterion not met

Task: Has `[N-]=[N+]=NC[C@H]1OCO[C@H](CN=[N+]=[N-])[C@H]2OCCOCCOc3ccccc3OCCOCCO[C@@H]21` a recorded growth inhibition greater than or equal to -10%?
Output: criterion not met

Task: Reported growth inhibition at or above -10%? CC1(C)OC2OC(CNC(=O)c3ccccc3)C(O)C2O1 (stereo unspecified)
Output: criterion not met

Task: Does the molecule `O=c1c2cc3c(cc2[nH]c2ncccc12)OCO3` have recorded growth inhibition that is -10% or more?
Output: criterion met

Task: Is growth inhibition for CCOC(=O)C(Cc1ccc(O)cc1)NC(=O)c1cc2c(cn1)[nH]c1ccccc12 (stereo unspecified) at or above -10%?
Output: criterion met

Here's the next entry for you.
Task: Quick check: does `CCCNCc1cccc2ccnc(C)c12` have growth inhibition greater than or equal to -10%?
Output: criterion met

---

Experiment: NCI Yeast Anticancer Drug Screen. Data for the cln2 rad14 strain (AID 165);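 also: 0% = growth equal to vehicle treated cultures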
Conditions: S. cerevisiae cln2 rad14 strain, at 50.0 µM, hits give high values
The panel holds about 79,000 compounds, 15% with a hit somewhere; the sample as a whole holds those more often.
// values below are reported growth inhibition
Answer format: numeric, % implied, no suffix.

Record excerpt, results attached:
Task: Consider the molecule `COc1ccc(C)c(CN(C)C)c1` and give its measured growth inhibition.
Output: 5.25

Task: Form field: reported growth inhibition of COC(=O)C(Cc1ccc2c(c1)OCO2)(NC(=O)c1ccccc1)P(=O)(OC)OC (configuration not stated)
Output: 16.8

Continuing:
Task: Which value of growth inhibition has been reported for `CCc1cccc(C)c1NC(=O)CCc1nnc2s/c(=C\c3cccc4ccccc34)c(=O)n12` in the records?
Output: 24.5

Task: So what does the record say about growth inhibition for `COc1ccc(-n2c(C)nc3c(cnn3CN3CCCCC3)c2=O)cc1` ?
Output: -4.05

Task: Could you tell me which growth inhibition is on file for `COc1cccc(/C=N/O)c1OC` ?
Output: 8.55

---

Experiment: NCI Yeast Anticancer Drug Screen. Data for the mec2-1 strain (AID 157)
Details: S. cerevisiae mec2-1 strain, at 50.0 µM, hits give high values
Procedure: Growth inhibition of yeast strains with defined genetic alterations is measured as a screen for potential anti-cancer activity. Selected strains with alterations in DNA damage repair or cell cycle control were exposed to compounds and growth inhibition was measured relative to vehicle treated controls. The strain used in this assay is mec2-1
About 79,000 compounds went through this panel and 15% of them were active in at least one assay; those are over-represented in the sample as a whole. Where a SMILES comes first, the peptide text is derived from it. Bridges are numbered along the chain shown (N, C = ends). Roman numbers before positions name the chains, in order. The star is where a group is joined. Cbz = O=C(OCc1ccccc1)*
observation_type: growth inhibition (%)
Give just the number in %; leave the unit off.

Examples with their reported growth inhibition follow.
Task: Item COc1cc(C2C3=C(COC3=O)Oc3cc4c(cc32)OCO4)cc(OC)c1OC (centres undefined) has what recorded growth inhibition?
Output: 24.1

Task: Please report the recorded growth inhibition for `C/C=C/C(=O)N(CC)c1ccccc1` .
Output: -2.25

Further cases:
Task: I have this compound here, `Cc1cc(Nc2ccc(S(=O)(=O)O)c3cc(S(=O)(=O)O)cc(S(=O)(=O)O)c23)c2ccccc2n1` , and I need its recorded growth inhibition.
Output: 4.3

Task: What does the record list as growth inhibition for CCOC(=O)CNC(=O)C(Cc1ccccc1)NC(=O)C(N)CC(=O)O (stereo not drawn) (H-Asp-Phe-Gly-OEt; configuration not given here) ?
Output: -42.4

Task: What value of growth inhibition has been recorded for this entry: C=C1C(=O)C23C(O)CC4C(C)(C)[C@@H](OC(C)=O)CCC4(C)[C@]2(O)CCC1[C@@H]3O (some centres undefined)
Output: 48.9

Task: Reported growth inhibition for CCC(C)[N-]c1cccc[n+]1[O-].CCC(C)[N-]c1cccc[n+]1[O-].[Cu+2] (centres undefined) : what is it?
Output: -3.9

Task: Given the entry `O=[N+]([O-])c1cccc(/C=N\O)c1` , report its measured growth inhibition.
Output: -8.45

Task: Could you tell me which growth inhibition is on file for CN1CC2=C(NC(=S)NC2c2ccccc2)/C(=C/c2ccccc2)C1 (centres undefined) ?
Output: -8.75

Task: GET /values?readout=growth inhibition&item= `O=C(O)CC(=O)c1ccccc1`
Output: 4.85

Task: # lookup: growth inhibition of `CCO/C(Cc1ccc(Cl)cc1)=N/NC(N)=S`
Output: 2

Task: Return reported growth inhibition; argument: `Oc1nc2nc[nH]n2c1N=Nc1ccccc1`
Output: -12.9

Task: Would you kindly share the measured growth inhibition for `Fc1cccc(Cl)c1CSc1n[nH]c(C(F)(F)F)n1` ?
Output: -24.1

Task: Name the recorded growth inhibition for `CON(C)CCOC(=O)c1ccc([N+](=O)[O-])cc1` .
Output: 4.15

Task: # input compound: CC(C)C(NC(=O)C(CSSCC(NC(=O)OCc1ccccc1)C(=O)NC(C(=O)O)C(C)C)NC(=O)OCc1ccccc1)C(=O)O (stereo not drawn) (I: Cbz-Cys-Val-OH / II: Cbz-Cys-Val-OH; disulfide I:1-II:1; configuration not given here) ; wanted: its growth inhibition
Output: 11.3

Task: Requested field: growth inhibition. Item: `O=C(/C=C/c1ccccc1)NC(=S)Nc1ccccc1F`
Output: -3.1

Task: Tell me the measured growth inhibition of `Oc1cc2c(cc1O)-c1[nH]ncc1CC2` , please.
Output: 0.25
